# Test system: T-47D breast
# assay protocol: NCI-60 one-dose screen, 48 h (100 = growth as untreated, 0 = no growth, -100 = all killed)
# measurement setup: 10 µM unless noted
# Protocol: Growth inhibition of the T-47D human tumor cell line is measured as a screen for anti-cancer activity. Cells are grown in 96 well plates and exposed to the test compound for 48 hours. Compounds are tested at a single concentration, which is 10^-5 M for most compounds. The reported endpoint is percent growth (GI% or GIPRCNT), where numbers from 0 - 100% represent growth inhibition, and numbers from -100% - 0 represent cell death. For example, a value of 40 represents 60% growth inhibition. […]
Compounds without any hit were thinned out: in the full panel of roughly 83,000, 20% have a hit.
Rule for this label: t means growth is less than 70%; f means growth is at least 70%.

molecule	classification
CCOC(=O)C1=C(c2ccccc2)N=C2N(c3ccccc3)N=C(C(C)=O)N2C1c1ccc(Br)cc1 (stereo not given)	f
N/C(=N\c1nc2ccccc2s1)NC(=O)Nc1ccccc1	t
Cc1ccc(Nc2oc(-c3ccccc3)nc2[P+](c2ccccc2)(c2ccccc2)c2ccccc2)cc1	t
CC1(C)CC[C@]2(CO)CC[C@]3(C)[C@H](CC[C@@H]4[C@@]5(C)CC[C@H](O)C(C)(C)[C@@H]5CC[C@]43C)[C@H]2[C@H]1O	f
COc1ccc(-c2cc(-c3ccc(Cl)cc3)c(C#N)c(=O)n2CCCCC(=O)NO)cc1	f
COc1ccc2c(O)cc3c(c2c1)[C@H](CCl)CN3C(=O)c1cc2cc(NC(=O)CCN3CCOCC3)ccc2[se]1	t
CC(C)(C)CC(C)(C)Nc1c(-c2c(O)c3ccccc3oc2=O)nc2sccn12	f
COc1ccc(CNc2ccc3nc(CCC4CCCCC4)[nH]c3c2)cc1	t
Nc1c(C(=O)c2ccc(Cl)cc2)sc(Nc2ccccc2)c1-c1nc2ccccc2s1	t
O=C(O)CCCN1C(=O)CSC1=S	f
Cc1ccc(C23CCC(=O)N2CCc2cncn23)cc1 (stereo not given)	f
CCN1C(=O)N(CC)C2C1NN=c1s/c(=C3\C(=O)N(C)c4ccccc43)c(=O)n12 (stereo not given)	t
N#Cc1nn(-c2ccccn2)c(N)c1C#N	f
O=C(Nc1cccc(Cl)c1)Oc1c(Cl)c(Cl)c(Cl)c(Cl)c1Cl	f
N#CC1=C(N)Oc2c(ccc3ccccc23)C1c1cc2ccccc2n2nnnc12 (stereo not given)	t
Cc1c2cnccc2c(C)c2c1c1cc(C(=O)O)ccc1n2C	t
O=C(COc1ccc(/C=C2\Oc3ccccc3C2=O)cc1)Nc1nccs1	f
CCCc1cc(CCC)n2nc(N)nc2n1	f
COc1ccc(NC(=O)c2ccc(NC3=C(c4ccc(Cl)cc4)C(=O)NC3=O)cc2)cc1	t
Cc1oc2ccc(O)c(CN3CCCCCC3)c2c1C(=O)Nc1ccc(C(F)(F)F)cc1	f
O=C(O)/C=C/c1cn(-c2ccccc2)nc1-c1ccc(F)cc1	f
C=CCNc1ccc2c3c(cccc13)C(=O)N(CC=C)C2=O	f
CC(=O)Cc1nsc(NC(=O)c2cc(-c3cc(Cl)ccc3Cl)oc2C)n1	f
Oc1cccc2c1NCCC2	t
NCCCCCNc1noc(Cc2c[nH]c3cc(Br)ccc23)n1	t
COc1ccc(-c2ccc(-c3ccc(C(=N)N)o3)o2)cc1	t
O=C(OCC(O)C(=O)NC12CC3CC(CC(C3)C1)C2)c1cccc(Br)c1 (stereo not given)	f
CCOc1cc(\C=N/N=C(N)/C(N)=N\N=C/c2ccc(O)c(OCC)c2)ccc1O	t
COc1ccc(-n2c(=O)n(-c3ccc(-c4nc5ccc(F)cc5s4)cc3)c(=O)c3cccnc32)cc1	f
C=C1/C(=C\C=C2/CCC[C@]3(C)[C@@H]([C@H](C)CCCC(C)(C)O)CC[C@@H]23)C[C@@H](OC(=O)CBr)C[C@@H]1O	f
CN1C(=O)N(C)C2C1NN=c1s/c(=C\c3ccc(F)cc3)c(=O)n12 (stereo not given)	t
Clc1ccc2c(NCCCn3cnc4c(N5CCCC5)nc(Cl)nc43)ccnc2c1	f
OC1CSSC1Cn1cnc2c(Nc3ccc(F)c(Cl)c3)ncnc21 (stereo not given)	t
CCN(CC)CCOc1ccc(/C(=C(\C)Cc2ccc(OC)cc2)c2ccc(O)cc2)cc1	t
CCOC(=O)CC1C(CNC(=O)NC)OC(n2cnc3c(NC(=O)Nc4ccccc4)ncnc32)C1O[Si](C)(C)C(C)(C)C (stereo not given)	t
CC(=O)O[C@H]1C[C@@]2(C)[C@@H](C[C@@H](O)[C@H]3[C@@]4(C)CC[C@H](N5CCCC5)[C@@H](C)[C@@H]4CC[C@@]32C)/C1=C(\CCC=C(C)C)C(=O)O	f
Cc1cc2c(c(C)n1)CN(C(=O)Nc1nc(-c3cncs3)ccc1N)C2	f
O=C1/C(=C/c2ccccc2)COc2ccc(O)cc21	f
